Every entry's value here was drawn from patent US10760052B2.

- tgt: mu opiate receptor (MOR) (Rattus norvegicus)
- Construct: from tissue; host or cells: striatum (membrane preparation)
- Sequence (P33535 whole entry): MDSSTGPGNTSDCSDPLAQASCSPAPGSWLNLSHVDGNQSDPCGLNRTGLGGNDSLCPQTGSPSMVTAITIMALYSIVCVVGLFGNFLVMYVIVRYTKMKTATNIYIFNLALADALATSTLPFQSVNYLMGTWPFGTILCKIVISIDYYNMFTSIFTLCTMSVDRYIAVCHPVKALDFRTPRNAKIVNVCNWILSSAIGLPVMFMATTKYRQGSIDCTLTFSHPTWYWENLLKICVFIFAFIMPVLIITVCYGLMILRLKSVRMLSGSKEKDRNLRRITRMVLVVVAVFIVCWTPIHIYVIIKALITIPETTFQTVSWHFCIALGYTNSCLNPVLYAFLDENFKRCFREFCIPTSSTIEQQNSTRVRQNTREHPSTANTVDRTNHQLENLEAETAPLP
- Format: biochemical
- cond: [35S]GTPγS binding to Gαo in striatal membranes; compound 1 μM plus 1 μM β-funaltrexamine (MOR antagonist)
- Protocol: To assess the mu opiate receptor (MOR) agonist activity of positive compounds from the FLNA screening, compounds were tested in a [^35S]GTPγS binding assay using striatal membranes. […] The immunocomplexes so formed were collected by incubation at 25° C. for 30 minutes with 40 μl of agarose-conjugated protein A/G beads and centrifugation at 5,000×g at 4° C. for 5 minutes. […] The radioactivity in the suspension was determined by liquid scintillation spectrometry.
Below, each of the compounds is paired with its reported Concentration of FLNA-Binding Compound as Agonist 1 μM + BFNA value.
Don't forget the unit after the number, please.

# compound, reported_measurement
records = [
    ("COC(=O)c1ccc(S(=O)(=O)N2CCC3(CC2)OCCN3S(=O)(=O)c2ccc(C(=O)OC)cc2)cc1 [Compound C0028]", "78.4%"),
]

// lookup Concentration of FLNA-Binding Compound as Agonist 1 μM + BFNA for COc1c2c(cc3c1C(CC(=O)Cc1ccc(Br)cc1)[N+](C)(C)CC3)OCO2 (stereo not shown) [Compound B0011]
78.0%

Can you check COc1c2c(cc3c1C(CC(=O)/C=C/c1ccc(Cl)cc1)[N+](C)(C)CC3)OCO2 (stereo not shown) [Compound B0019] next?
81.4%

Can you check COc1ccc(CCC(O)CC2c3c(cc4c(c3OC)OCO4)CCN2C)cc1 (stereo not shown) [Compound B0048] next?
78.5%
